# study_system: hCB2 receptors (CHO cells transfected with hCB2) (Homo sapiens)
# Sequence (P34972 whole entry): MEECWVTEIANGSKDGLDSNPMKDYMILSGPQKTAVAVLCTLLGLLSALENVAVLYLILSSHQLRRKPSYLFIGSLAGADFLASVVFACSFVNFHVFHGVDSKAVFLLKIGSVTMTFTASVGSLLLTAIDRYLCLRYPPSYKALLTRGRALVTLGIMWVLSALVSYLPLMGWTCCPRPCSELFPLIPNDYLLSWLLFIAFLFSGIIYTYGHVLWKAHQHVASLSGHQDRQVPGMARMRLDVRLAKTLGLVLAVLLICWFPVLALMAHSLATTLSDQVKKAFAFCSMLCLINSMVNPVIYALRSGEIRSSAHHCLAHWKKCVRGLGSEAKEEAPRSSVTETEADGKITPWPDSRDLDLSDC
parameter: pKi
Numbers only, as −log10 of the molar value.

I'd like to know its pKi. The compound in question is CCCc1cc(O)c2c(c1)OC(C)(C)[C@@H]1CCC(C)=C[C@@H]21 [THCV, tetrahydrocannabivarin]
7.20

* * *

# study_system: CB1 receptors (mouse brain membranes) (Mus musculus, UniProt P47746)
# Construct: membranes prepared from healthy brain tissue, which is densely populated with CB1 but not CB2 receptors; from tissue; host or cells: mouse brain membranes
# Sequence (P47746 whole entry): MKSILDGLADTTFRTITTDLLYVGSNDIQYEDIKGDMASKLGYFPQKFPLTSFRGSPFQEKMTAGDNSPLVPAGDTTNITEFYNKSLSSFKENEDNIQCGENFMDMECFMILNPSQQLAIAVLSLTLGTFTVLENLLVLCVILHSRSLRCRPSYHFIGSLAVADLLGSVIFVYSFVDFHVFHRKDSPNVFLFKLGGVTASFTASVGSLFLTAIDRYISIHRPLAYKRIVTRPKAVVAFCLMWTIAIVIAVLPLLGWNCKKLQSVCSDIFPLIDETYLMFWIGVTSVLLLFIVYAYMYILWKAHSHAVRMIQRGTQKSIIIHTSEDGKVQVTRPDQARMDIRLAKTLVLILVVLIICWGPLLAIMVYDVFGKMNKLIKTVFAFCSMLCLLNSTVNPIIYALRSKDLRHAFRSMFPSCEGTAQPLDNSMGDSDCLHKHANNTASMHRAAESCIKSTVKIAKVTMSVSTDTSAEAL
# measurement_notes: Radioligand displacement assay, mouse brain membranes
# Format: binding
# condition_set: EC50, displacement of [3H]CP55940, mouse brain membranes; n=4 to 8
parameter: EC50
Express your answer as a number followed by its unit.

Test system CB1 receptors (mouse brain membranes) (Mus musculus, UniProt P47746); read-out EC50; what value for CCCc1cc(O)c2c(c1)OC(C)(C)[C@@H]1CCC(C)=C[C@@H]21 [THCV, tetrahydrocannabivarin] ?
98.2 nM
